assay: in vivo; details: athymic nude Foxn1+Foxn1+, mouse, iv, 200 umol, total radioactivity, Biodistribution Kidney
Endpoint: tissue uptake at 1 h (%ID/g)
Answer with a number only, understood to be in %ID/g.

Exam item: tissue uptake at 1 h for C[C@@H](O)[C@@H]1NC(=O)[C@H](CCCCN)NC(=O)[C@@H](Cc2c[nH]c3ccccc23)NC(=O)[C@H](Cc2ccc(O)cc2)NC(=O)[C@@H](NC(=O)[C@@H](Cc2ccccc2)NC(=O)CCC(C(=O)O)N2CCN(CC(=O)O)CCN(CC(=O)O)CC2)CSSC[C@@H](C(=O)N[C@H](CO)[C@@H](C)O)NC1=O (single isomer, unassigned) [[^61Cu]Cu-NODAGA-TOC, metal not drawn] ?
Marked response: 12.5

====

Assay: Pharmacokinetics (biodistribution 1-24 h) in non-tumor bearing mice
Type: in vivo
Details: female, BALB/c, mouse, spleen, 200 umol, total radioactivity; 12 hours after injection, ^64Cu; read-out: Biodistribution Spleen
Procedure: The biodistribution at the investigate time points was performed as described in the Example 9. The data were combined with the results obtained from the groups of xenografts at 1 hour and 4 hours p.i., as the biodistribution in nude mice was the same as in the healthy mice. The results were expressed as described in the Example 10.
Endpoint: tissue uptake at 12 h (%ID/g)
The reply should be a number in %ID/g, with the unit left off.

Exam item: Fill in the blank: the reported tissue uptake at 12 h of C[C@@H](O)[C@@H]1NC(=O)[C@H](CCCCN)NC(=O)[C@@H](Cc2c[nH]c3ccccc23)NC(=O)[C@H](Cc2ccc(O)cc2)NC(=O)[C@@H](NC(=O)[C@@H](Cc2ccccc2)NC(=O)CCC(C(=O)O)N2CCN(CC(=O)O)CCN(CC(=O)O)CC2)CSSC[C@@H](C(=O)N[C@H](CO)[C@@H](C)O)NC1=O (single isomer, unassigned) [[^61/^64Cu]Cu-NODAGA-TOC, metal not drawn] is ____.
Marked response: 0.1

====

experiment: Pharmacokinetics (biodistribution 1-24 h) in non-tumor bearing mice; type: in vivo; settings: female, BALB/c, mouse, intestine, 200 umol, total radioactivity; 4 hours after injection, ^61Cu; read-out: Biodistribution Intestine
Endpoint: tissue uptake at 4 h (%ID/g)
API: value field is a number in %ID/g; no unit string.

Exam item: If you can, please state the reported tissue uptake at 4 h value of C[C@@H](O)[C@@H]1NC(=O)[C@H](CCCCN)NC(=O)[C@@H](Cc2c[nH]c3ccccc23)NC(=O)[C@H](Cc2ccc(O)cc2)NC(=O)[C@@H](NC(=O)[C@@H](Cc2ccccc2)NC(=O)CCC(C(=O)O)N2CCN(CC(=O)O)CCN(CC(=O)O)CC2)CSSC[C@@H](C(=O)N[C@H](CO)[C@@H](C)O)NC1=O (single isomer, unassigned) [[^61/^64Cu]Cu-NODAGA-TOC, metal not drawn] .
Marked response: 0.69

====

I'd appreciate it if you could supply Biodistribution Femur values for the items below.
system: HT-1080.hFAP and HT-1080.wt xenografts; assay: Quantitative biodistribution in HT-1080.hFAP and HT-1080.wt xenografted mice; assay type: in vivo; settings: 1 h p.i., HT-1080.hFAP and HT-1080.wt xenografts
Please state the number and follow it with the unit.

Exam item: # lookup: Biodistribution Femur of N#C[C@@H]1CC(F)(F)CN1C(=O)CNC(=O)c1ccnc2ccc(NC(=O)CCC(=O)NCCNC(=O)CC[C@H](C(=O)O)N3CCN4CCN(CC3)CC(=O)[O][61Cu][O]C(=O)C4)cc12 [[^61Cu]Cu-NODAGA-F1]
Marked response: 10.9 ± 1.1 % IA/g

Exam item: Next up: N#C[C@@H]1CC(F)(F)CN1C(=O)CNC(=O)c1ccnc2ccc(NC(=O)CCC(=O)N3CCN(C(=O)CC[C@H](C(=O)O)N4CCN5CCN(CC4)CC(=O)[O][61Cu][O]C(=O)C5)CC3)cc12 [[^61Cu]Cu-NODAGA-F3]
Marked response: 5.4 ± 1.2 % IA/g

Exam item: Would you mind doing CN(C(=O)CCC(=O)NCCNC(=O)CC[C@H](C(=O)O)N1CCN2CCN(CC1)CC(=O)[O][61Cu][O]C(=O)C2)c1ccc2nccc(C(=O)NCC(=O)N3CC(F)(F)C[C@H]3C#N)c2c1 [[^61Cu]Cu-NODAGA-F2] as well?
Marked response: 2.4 ± 0.3 % IA/g

====

Assign Biodistribution HT1080.hFAP (FAP-positive tumor) to each entry below.
tested on: HT-1080.hFAP and HT-1080.wt xenografts; assay: Quantitative biodistribution in HT-1080.hFAP and HT-1080.wt xenografted mice; type: in vivo; settings: 4 h p.i., HT-1080.hFAP and HT-1080.wt xenografts
// return numeric value only (unit: % IA/g, not printed)

Exam item: Which Biodistribution HT1080.hFAP (FAP-positive tumor) value belongs to CN(CCCN1CCN(C(=O)CCC(C(=O)O)N2CCN3CCN(CC2)CC(=O)[O][61Cu][O]C(=O)C3)CC1)c1ccc2nccc(C(=O)NCC(=O)N3CC(F)(F)C[C@H]3C#N)c2c1 (some centres unmarked) [[^61Cu]Cu-NODAGA-FAPI-46] ?
Marked response: 7.7

Exam item: Here is the next compound: N#C[C@@H]1CC(F)(F)CN1C(=O)CNC(=O)c1ccnc2ccc(NC(=O)CCC(=O)NCCNC(=O)CC[C@H](C(=O)O)N3CCN4CCN(CC3)CC(=O)[O][61Cu][O]C(=O)C4)cc12 [[^61Cu]Cu-NODAGA-F1]
Marked response: 7.1

Exam item: Here is the next compound: CN(C(=O)CCC(=O)N1CCN(C(=O)CC[C@H](C(=O)O)N2CCN3CCN(CC2)CC(=O)[O][61Cu][O]C(=O)C3)CC1)c1ccc2nccc(C(=O)NCC(=O)N3CC(F)(F)C[C@H]3C#N)c2c1 [[^61Cu]Cu-NODAGA-F4]
Marked response: 3.0

Exam item: Try this compound next: CN(C(=O)CCC(=O)NCCNC(=O)CC[C@H](C(=O)O)N1CCN2CCN(CC1)CC(=O)[O][61Cu][O]C(=O)C2)c1ccc2nccc(C(=O)NCC(=O)N3CC(F)(F)C[C@H]3C#N)c2c1 [[^61Cu]Cu-NODAGA-F2]
Marked response: 4.0

Exam item: What would you report for N#C[C@@H]1CC(F)(F)CN1C(=O)CNC(=O)c1ccnc2ccc(NC(=O)CCC(=O)N3CCN(C(=O)CC[C@H](C(=O)O)N4CCN5CCN(CC4)CC(=O)[O][61Cu][O]C(=O)C5)CC3)cc12 [[^61Cu]Cu-NODAGA-F3] ?
Marked response: 6.4

====

Exercise: state measured Biodistribution Spleen for each of the molecules provided.
system: HT-1080.hFAP and HT-1080.wt xenografts; test: Quantitative biodistribution in HT-1080.hFAP and HT-1080.wt xenografted mice; format: in vivo; settings: 4 hours p.i.
// return numeric value only (unit: % I.A./g, not printed)

Exam item: // returns reported Biodistribution Spleen for input CN(C(=O)CCC(=O)N1CCN(C(=O)CC[C@H](C(=O)O)N2CCN3CCN(CC2)CC(=O)[O][61Cu][O]C(=O)C3)CC1)c1ccc2nccc(C(=O)NCC(=O)N3CC(F)(F)C[C@H]3C#N)c2c1 [[^61Cu]Cu-NODAGA-F4]
Marked response: 0.2

Exam item: // same read-out, input: N#C[C@@H]1CC(F)(F)CN1C(=O)CNC(=O)c1ccnc2ccc(NC(=O)CCC(=O)N3CCN(C(=O)CC[C@H](C(=O)O)N4CCN5CCN(CC4)CC(=O)[O][61Cu][O]C(=O)C5)CC3)cc12 [[^61Cu]Cu-NODAGA-F3]
Marked response: 0.3

Exam item: Another molecule: N#C[C@@H]1CC(F)(F)CN1C(=O)CNC(=O)c1ccnc2ccc(NC(=O)CCC(=O)NCCNC(=O)CC[C@H](C(=O)O)N3CCN4CCN(CC3)CC(=O)[O][61Cu][O]C(=O)C4)cc12 [[^61Cu]Cu-NODAGA-F1]
Marked response: 0.5

Exam item: What do you have for CN(C(=O)CCC(=O)NCCNC(=O)CC[C@H](C(=O)O)N1CCN2CCN(CC1)CC(=O)[O][61Cu][O]C(=O)C2)c1ccc2nccc(C(=O)NCC(=O)N3CC(F)(F)C[C@H]3C#N)c2c1 [[^61Cu]Cu-NODAGA-F2] ?
Marked response: 0.2

====

experiment: Pharmacokinetics (biodistribution 1-24 h) in non-tumor bearing mice; type: in vivo; details: female, BALB/c, mouse, pancreas, 200 umol, total radioactivity; 1 hour after injection, ^61Cu; read-out: Biodistribution Pancreas
Endpoint: tissue uptake at 1 h

Exam item: Consider the compound shown here: C[C@@H](O)[C@@H]1NC(=O)[C@H](CCCCN)NC(=O)[C@@H](Cc2c[nH]c3ccccc23)NC(=O)[C@H](Cc2ccc(O)cc2)NC(=O)[C@@H](NC(=O)[C@@H](Cc2ccccc2)NC(=O)CCC(C(=O)O)N2CCN(CC(=O)O)CCN(CC(=O)O)CC2)CSSC[C@@H](C(=O)N[C@H](CO)[C@@H](C)O)NC1=O (single isomer, unassigned) [[^61/^64Cu]Cu-NODAGA-TOC, metal not drawn] What is its recorded tissue uptake at 1 h?
Marked response: 2.71 %ID/g
